Molecular target: UniProtKB Q96KQ7
Sequence (Q96KQ7 1-1210): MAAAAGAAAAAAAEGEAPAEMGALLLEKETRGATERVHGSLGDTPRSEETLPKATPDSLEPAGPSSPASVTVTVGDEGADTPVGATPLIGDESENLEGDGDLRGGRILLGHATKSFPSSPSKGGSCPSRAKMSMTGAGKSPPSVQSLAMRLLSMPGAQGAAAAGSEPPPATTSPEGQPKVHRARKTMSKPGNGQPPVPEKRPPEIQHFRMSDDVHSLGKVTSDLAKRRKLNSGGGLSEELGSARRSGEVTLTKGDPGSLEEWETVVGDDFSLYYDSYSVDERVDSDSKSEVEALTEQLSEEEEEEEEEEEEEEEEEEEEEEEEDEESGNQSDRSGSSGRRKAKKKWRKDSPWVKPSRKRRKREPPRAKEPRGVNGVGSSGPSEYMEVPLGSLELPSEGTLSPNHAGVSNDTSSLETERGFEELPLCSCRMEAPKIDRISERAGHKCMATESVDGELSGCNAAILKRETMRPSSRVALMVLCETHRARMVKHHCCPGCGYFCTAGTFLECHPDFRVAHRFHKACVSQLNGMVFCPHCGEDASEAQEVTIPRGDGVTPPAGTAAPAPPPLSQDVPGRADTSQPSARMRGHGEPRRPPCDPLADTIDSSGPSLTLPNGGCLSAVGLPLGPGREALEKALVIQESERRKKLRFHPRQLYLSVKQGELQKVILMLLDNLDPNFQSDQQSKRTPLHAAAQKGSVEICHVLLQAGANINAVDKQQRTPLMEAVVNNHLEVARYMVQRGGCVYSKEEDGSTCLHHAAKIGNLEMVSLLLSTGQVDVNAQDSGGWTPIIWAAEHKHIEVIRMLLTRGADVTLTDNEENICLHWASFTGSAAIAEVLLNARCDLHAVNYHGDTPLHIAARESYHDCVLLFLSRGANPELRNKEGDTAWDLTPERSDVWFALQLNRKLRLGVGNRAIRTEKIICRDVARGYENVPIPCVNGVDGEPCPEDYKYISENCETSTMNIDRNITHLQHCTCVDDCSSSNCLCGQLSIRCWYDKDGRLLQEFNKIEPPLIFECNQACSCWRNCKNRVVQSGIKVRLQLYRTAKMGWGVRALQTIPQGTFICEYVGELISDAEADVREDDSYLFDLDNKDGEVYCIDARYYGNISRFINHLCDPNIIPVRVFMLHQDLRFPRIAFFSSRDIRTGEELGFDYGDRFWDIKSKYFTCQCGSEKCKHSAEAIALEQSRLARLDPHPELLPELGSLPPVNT
Recorded IC50 values for a group of molecules are listed next.
Quick note: give the figure in nM, leave out the unit.

## Input Using the record for CNc1c2c(nc3cc(OCCCN4CCCC4)c(OC)cc13)CCCCC2 [Example 19] , report its IC50.
## Output 7.94

## Input Now this one: COc1cc2c(NC[C@H]3COCCO3)c3c(nc2cc1OCCCN1CCCC1)CCC3 [Example 27]
## Output 12.6

## Input And CNc1c2c(nc3cc(OCCCN)c(OC)cc13)CCC2 [Example 61] ?
## Output 537

## Input CNc1c2c(nc3cc(OCCCNC(C)=O)c(OC)cc13)CCC2 [Example 46] , same question.
## Output 3090

## Input Try COC[C@H](C)Nc1c2c(nc3cc(OCCCN4CCCC4)c(OC)cc13)CCC2 [Example 4] next.
## Output 6.17

## Input Please answer likewise for COc1cc2c(NCCC(C)(C)O)c3c(nc2cc1OCCCN1CCCC1)CCCCC3 [Example 39]
## Output 57.5
